B1: ESRRA (parent)
chain: SLPLQDELAFAEDLVLDEEGARAA

# Variants of: B1
# ASSAY_OVERVIEW: protein stability index of a GFP-peptide fusion (GPS, HEK-293T) (PSI 1-6); higher = more stable;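 also: lentivirally expressed fusions sorted by FACS into six bins by GFP to DsRed ratio, PSI derived from sequencing read proportions per bin multiplied by bin number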
# CONDITION_SET: c terminus: a fixed tail appended
Give protein stability index for every item shown.

Q: Endpoint output: protein stability index of A23C . Value?
Result: 2.98

Q: What would you report for A24F ?
Result: 2.14

Q: What would you report for D17R ?
Result: 3.13

Q: What would you report for Q5M ?
Result: 2.48

Q: What would you report for Q5W ?
Result: 2.29

Q: What would you report for E12I ?
Result: 3.8

Q: What would you report for A9Q ?
Result: 3.61

Q: What would you report for E18L ?
Result: 3.11

Q: What would you report for P3Y ?
Result: 4.61

Q: What would you report for L8H ?
Result: 5.5

Q: What would you report for G20H ?
Result: 2.9

Q: What would you report for L2P ?
Result: 4.27

Q: What would you report for E7Q ?
Result: 3.56

Q: What would you report for E12S ?
Result: 5.26

Q: What would you report for A11N ?
Result: 5.7

Q: What would you report for P3K ?
Result: 5.08

Q: What would you report for D6S ?
Result: 3.25

Q: What would you report for F10N ?
Result: 4.03

Q: What would you report for V15F ?
Result: 5.55

Q: What would you report for E18N ?
Result: 3.68

Q: What would you report for E19W ?
Result: 2.52

Q: What would you report for E19N ?
Result: 2.63
